- assay.text: qHTS assay for identifying genotoxic compounds that show differential cytotoxicity against isogenic chicken DT40 cell lines with known DNA damage response pathways - Rad54/Ku70 mutant cell line (AID 743015); note: nearly all actives have a fitted effect of over 60% in size
- experimental.context: DT40 Rad54/Ku70 mutant viability, CellTiter-Glo, 40 h; series mostly up to 66.8 µM
Records with an inconclusive call do not appear. Activity calls are given as the source filed them. Calls come from the whole dose curve; as a rule, active = well fitted cell-killing curve with a large enough effect in the repeat runs; inconclusive = weak or mixed curves; inactive = no such curve, though single readings can be large or run the other way.
In this exercise, the only acceptable responses are 1 (yes) for active, 0 (no) for inactive

Consider the worked cases shown below.
molecule	qualitative.label
CCCN(CC1CC1)c1c([N+](=O)[O-])cc(C(F)(F)F)cc1[N+](=O)[O-]	0 (no)
C[N+](C)(C)CCCl	0 (no)
CO/C=C(/C(=O)OC)c1ccccc1COc1cccc(C(F)(F)F)n1	1 (yes)
Clc1ccc(C2(Cn3cncn3)CC(Br)CO2)c(Cl)c1 (stereo unspecified)	1 (yes)
c1cc2ccc3cccc4ccc(c1)c2c34	1 (yes)

// return assay outcome for `CC(=O)C(C)(C)C` 1 (yes)
